# inhibition annotations
- procedure summary: growth suppression of yeast trafficking mutant, preliminary HTS, modulators of trafficking downstream of Golgi apparatus project, 1536-format plate, OD 615 nm (AID 637)
- condition info: yeast transport mutant growth, absorbance 615 nm, 18 h; stronger effect = higher value
The answer is to be given in %; state only the numeric part.

Worked cases, answers included:
compound=Cc1ccc(-c2nn3c(C)nnc3s2)cc1N unit_annotation=% test_result=3.33
compound=CC1(C)CC(=O)CC(C)(C)N1OC(=O)c1ccccn1 unit_annotation=% test_result=5.74
compound="CNC(=O)OC(C)CNS(=O)(=O)c1ccc(C)cc1 (centres undefined)" unit_annotation=% test_result=0.55

// switching to the query compound
Request: State the recorded inhibition for this entry: "CC[C@H](C)C(=O)O[C@H]1C[C@@H](C)C=C2C=C[C@H](C)[C@H](CC[C@@H]3C[C@@H](O)CC(=O)O3)[C@H]21"
Result: 2.83

---

- procedure summary: growth inhibitors of H69AR lung tumor, primary screen, human, duplicate replicates (AID 580);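 further: 100% = mean luminescence of untreated wells and 0% = no signal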
- condition info: H69AR lung tumor cells viability, ATP luminescence, 72 h; at 10 µM; stronger effect = lower value
Overview of reported viability across a group of compounds:
The response must be a number in % with no trailing unit.

compound=Cc1ccc(N2CCN(CCc3nc4cc(NS(C)(=O)=O)ccc4n3C)CC2)cc1 reported_property=viability unit_annotation=% test_result=90.1

Request: Please give the measured viability for this compound: COC(=O)C1=C(N)Oc2cc(C)n(Cc3ccncc3)c(=O)c2C1c1cccnc1 (configuration not stated)
Result: 88.4

Request: "O=S(=O)(c1ccc(Br)s1)N1CCN(c2ccccc2)CC1"
Result: 87.6

Request: What would you report for "Cc1cc(C(C)(C)C)c(O)c(C)c1CC1=NCCN1" ?
Result: 92.5

---

The entries below come with measured viability values attached.
- procedure summary: reversal of MRP1-mediated doxorubicin resistance, pilot screen, H69AR cells, doxorubicin co-treatment (AID 601)
- condition info: H69AR cells, CellTiter-Glo, 72 h; compound alone cytotoxicity; at 10 µM
Numeric answer only, unit % assumed.

See these solved cases before continuing.
molecule=C/C(=N\O)c1ccc2c3c([nH]c2c1)CCCC3 test_result=88.1
molecule=O=C(c1ccccc1)N1CCN(Cc2ccccc2Br)CC1 test_result=92.3

Turning now to a further record.
Request: Reported viability for CC(C)NCC(O)COc1ccc(CC(N)=O)cc1 (stereo not drawn) : what is it?
Result: 88.1

---

Collected viability values appear next to each entry.
- procedure summary: growth inhibitors of H69AR lung tumor, primary screen, human, duplicate replicates (AID 580);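 further: 100% = mean luminescence of untreated wells and 0% = no signal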
- condition info: H69AR lung tumor cells viability, ATP luminescence, 72 h; at 10 µM; stronger effect = lower value
Dear colleague, please return just the value in %, with no unit written.

Request: Entry "Cc1ccc(N2CCN(C(=O)c3ccccc3)CC2)c(C)c1" has what viability?
Result: 91.1

Request: Same read-out for "O=C(Nc1ccc2nn(-c3ccccc3)nc2c1)c1ccc(Br)o1" ?
Result: 9.49

---

- procedure summary: reversal of MRP1-mediated doxorubicin resistance, pilot screen, H69AR cells, doxorubicin co-treatment (AID 601)
- condition info: H69AR cells, CellTiter-Glo, 72 h; compound alone cytotoxicity; at 10 µM
reported property: viability

compound="Cc1ccc(S(=O)(=O)CC2CSc3nnc(C)c(=O)n32)cc1 (stereo not given)" reported_property=viability test_result=88%

Request: May I ask what viability has been recorded for "O=C(NCCCN1CCN(Cc2ccccc2)CC1)C1CCN(c2nnc(-n3cccc3)s2)CC1" ?
Result: 88.7%

Request: What do you have for "Cn1c(=O)c2c(nc(SCC(=O)NCc3ccc4c(c3)OCO4)n2Cc2ccccc2)n(C)c1=O" ?
Result: 92.6%

Request: Follow-up item: "Clc1cccc(Cl)c1COc1ccncc1"
Result: 97.2%

---

- procedure summary: growth inhibitors of H69AR lung tumor, primary screen, human, duplicate replicates (AID 580);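 further: 100% = mean luminescence of untreated wells and 0% = no signal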
- condition info: H69AR lung tumor cells viability, ATP luminescence, 72 h; at 10 µM; stronger effect = lower value
Activity calls are given as the source filed them.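 Rule for the calls: active = viability at or under a set limit in both replicates, limit being median viability minus 3 SD (cut at about 48% in these data, passing the limit was not always enough); inconclusive = at or under the limit in just one replicate; inactive = at or above the limit in both replicates.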
reported property: viability

molecule=CCCCCn1c2nc3ccccc3nc2c2c(=O)n(CC(C)C)cnc21 test_result="87.3% (inactive)"
molecule=Cn1c(=O)cc(SCC(=O)NCc2cccnc2)c2ccccc21 test_result="92.7% (inactive)"

Request: Reported viability, molecule COCCn1nnnc1C(c1ccccc1OC)N1CCc2ccccc2C1 (stereo not drawn) : ____
Result: 82.1% (inactive)

---

- procedure summary: reversal of MRP1-mediated doxorubicin resistance, pilot screen, H69AR cells, doxorubicin co-treatment (AID 601)
- condition info: H69AR cells + 2 uM doxorubicin, CellTiter-Glo, 72 h; measured here: viability with 2 uM doxorubicin; at 10 µM; stronger effect = lower value
reported property: viability (%)
Give just the number in %; leave the unit off.

compound_string=Nc1nc(SCCOc2ccccc2)n[nH]1 unit_annotation=% test_result=90.8
compound_string=CCOC(=O)n1c(=O)oc2cc(S(=O)(=O)N3CCCCC3)ccc21 unit_annotation=% test_result=90.8
compound_string=CCn1nnc(NC(=O)c2ccccc2Br)n1 unit_annotation=% test_result=89.4

Now for another entry.
Request: // viability lookup, key: "O=C(Nc1cc(C(F)(F)F)ccc1Cl)c1cc(C2CC2)on1"
Result: 87.4

---

- procedure summary: growth suppression of yeast trafficking mutant, preliminary HTS, modulators of trafficking downstream of Golgi apparatus project, 1536-format plate, OD 615 nm (AID 637)
- condition info: yeast transport mutant growth, absorbance 615 nm, 18 h; stronger effect = higher value
The following molecules are shown together with reported inhibition values.
Form entry: value (%) — number only.

molecule="CCOC(=O)C1=C(C)NC(C)=C(C(=O)OC)C1c1cccc([N+](=O)[O-])c1 (centres undefined)" test_result=-1.17
molecule=CC(C)N(C(=O)N1CCC(c2nc(-c3ccncc3)no2)CC1)C(C)C test_result=-5.64
molecule=O=C(Cn1ncc2c(=O)oc3ccccc3c21)Nc1nc2ccccc2s1 test_result=-3.65

Proceed to the following item.
Request: What does the data say about its inhibition? Entry: "CC(=O)OCC(=O)[C@@]1(O)CC[C@H]2[C@@H]3CCC4=CC(=O)CC[C@]4(C)[C@H]3C(=O)C[C@@]21C"
Result: -1.33

---

Listing of entries alongside the reported viability.
- procedure summary: reversal of MRP1-mediated doxorubicin resistance, pilot screen, H69AR cells, doxorubicin co-treatment (AID 601)
- condition info: H69AR cells + 2 uM doxorubicin, CellTiter-Glo, 72 h; measured here: viability with 2 uM doxorubicin; at 10 µM; stronger effect = lower value
Number in %, nothing else.

Before answering, review these 5 worked examples.
compound=COCCNC(=S)c1ccc(OC)cc1 unit_annotation=% test_result=77.1
compound=NC(=O)CSCc1ccc(Br)cc1 unit_annotation=% test_result=108
compound="CCCC1Cc2c(sc3ncnc(N)c23)CO1 (centres undefined)" unit_annotation=% test_result=101
compound=c1cnc(NCCNc2ncccn2)nc1 unit_annotation=% test_result=89
compound="CC1=C(C(=O)Nc2ccccc2C)C(c2ccc(C)o2)N2C(=O)CSC2=N1 (centres undefined)" unit_annotation=% test_result=88.2

Request: Given the compound "CCCNS(=O)(=O)c1ccc(OCC(=O)Nc2ccccc2F)cc1" , what is its reported viability?
Result: 79.1

Request: Further, for "Clc1ccccc1OCCCCn1ccnc1" ?
Result: 72.3

Request: Now give it for "CC(=O)Nc1sc2c(c1C#N)CCCCC2" too.
Result: 90.2

Request: Follow-up item: "CC(C)OC(=O)c1cccc(C(=O)O)n1"
Result: 94.1

---

In this section we review reported viability values for a set of molecules.
- procedure summary: SK-BR-3 cell growth inhibitors, pilot screen, 24 h, human (AID 572);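 further: compound exposure lasted between 18 and 24 h rather than exactly 24 h; 100% = carrier-treated control wells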
- condition info: SK-BR-3 viability, CellTiter-Glo luminescence, at 10 µM, stronger effect = lower value
Unit % implied. Number only.

Known viability results, listed for orientation:
molecule="COc1ccc(-c2nc(CS(=O)CC(=O)N3CCCC3)c(C)o2)cc1 (centres undefined)" unit_annotation=% test_result=92.5
molecule=COc1cc(C(=O)Nc2cc(-c3ccccc3)[nH]n2)cc(OC)c1OC unit_annotation=% test_result=107
molecule=CCCN1Cc2cccc(C(=O)NCc3cccs3)c2C1=O unit_annotation=% test_result=86

Request: May I ask what viability has been recorded for COc1ccc2cc(C(c3nnnn3C(C)(C)C)N3CCc4ccccc4C3)c(=O)[nH]c2c1 (centres undefined) ?
Result: 81

---

- procedure summary: HUVEC growth inhibition – cell-based, human, primary screen (AID 575);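 further: 100% = median of untreated cell wells with 0.1% DMSO on each plate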
- condition info: HUVEC proliferation, CellTiter-Glo luminescence, 72 h; at 10 µM
Activity calls are given as the source filed them.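 Rule for the calls: active = viability at or below 30% in both replicate assays; inconclusive = viability at or below 30% in just one of the two assays; inactive = the rest.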
Permitted responses: active, inactive

Example results:
molecule="CC(OC1=CC(=O)CCC1)C(=O)c1ccccc1 (stereo unspecified)" category=inactive
molecule=C1=Nc2c(NCc3ccccc3)ncnc2Oc2ccccc21 category=inactive
molecule=COCC(=O)Nc1cc(OC)ccc1OC category=inactive

Request: Short answer needed: outcome of this test for COCC(=O)Nc1sc2c(c1C(=O)OC)CCC(C)C2 (stereo unspecified) ?
Result: inactive

Request: "COc1ccc(OC)c(S(=O)(=O)Nc2ccc(O)c3ccccc23)c1" ?
Result: active

Request: Consider next the molecule "O=C(CS(=O)(=O)c1cn(Cc2ccc(Cl)cc2)c2ccccc12)N1CCOCC1" in the same way.
Result: inactive
